system: TLR7 (Homo sapiens (Human), UniProt Q9NYK1)
Sequence (Q9NYK1 27-1049): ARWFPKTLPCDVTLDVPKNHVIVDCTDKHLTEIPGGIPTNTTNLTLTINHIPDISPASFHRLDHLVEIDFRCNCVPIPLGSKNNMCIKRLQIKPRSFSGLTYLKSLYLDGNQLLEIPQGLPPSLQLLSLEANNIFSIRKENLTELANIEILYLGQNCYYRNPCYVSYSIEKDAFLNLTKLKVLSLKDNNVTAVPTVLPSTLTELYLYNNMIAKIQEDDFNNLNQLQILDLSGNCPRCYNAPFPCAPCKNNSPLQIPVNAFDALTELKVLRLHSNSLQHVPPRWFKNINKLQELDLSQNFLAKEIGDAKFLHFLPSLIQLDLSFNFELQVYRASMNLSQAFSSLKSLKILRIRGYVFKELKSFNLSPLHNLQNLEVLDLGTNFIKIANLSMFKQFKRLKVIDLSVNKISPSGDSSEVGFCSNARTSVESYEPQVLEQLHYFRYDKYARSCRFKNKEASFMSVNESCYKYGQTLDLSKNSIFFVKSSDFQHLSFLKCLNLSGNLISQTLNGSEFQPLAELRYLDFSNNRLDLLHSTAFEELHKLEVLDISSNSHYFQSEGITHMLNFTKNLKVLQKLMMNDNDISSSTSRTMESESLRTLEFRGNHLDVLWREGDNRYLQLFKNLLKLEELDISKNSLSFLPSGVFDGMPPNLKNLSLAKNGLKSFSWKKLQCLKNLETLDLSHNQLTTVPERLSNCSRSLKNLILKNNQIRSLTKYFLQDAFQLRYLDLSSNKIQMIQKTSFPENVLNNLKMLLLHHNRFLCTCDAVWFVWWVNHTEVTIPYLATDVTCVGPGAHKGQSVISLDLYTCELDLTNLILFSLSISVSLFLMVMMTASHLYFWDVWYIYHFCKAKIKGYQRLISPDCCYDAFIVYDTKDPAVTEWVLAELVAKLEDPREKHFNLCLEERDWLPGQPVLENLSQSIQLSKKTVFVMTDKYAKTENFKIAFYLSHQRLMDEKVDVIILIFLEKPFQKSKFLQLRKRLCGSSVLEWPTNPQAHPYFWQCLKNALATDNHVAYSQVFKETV
measurement description: TLR7 human peripheral blood mononuclear cell (PBMC) cell-based assay (GS-986 as agonist; IL-6 and IFNα readout)
run conditions: human PBMCs, TLR7 agonist GS-986 at 400 nM, 6 hours, antagonist potency; read-out: TLR-7 EC50
observation type: EC50 (nM)

[
  {
    "molecule": "Cc1c([C@H]2C[C@@H]3CN(CC(N)=O)C[C@@H]3C2)sc2[nH]c(-c3cc(C)c4ncnn4c3)c(C(C)C)c12 [Example 70]",
    "scale unit": "nM",
    "EC50": 0.05
  },
  {
    "molecule": "Cc1c(C2CCN(C(=O)C34CC(F)(CN3)C4)CC2)sc2[nH]c(-c3cc(C)c4ncnn4c3)c(C(C)C)c12 [Example 41]",
    "scale unit": "nM",
    "EC50": 0.35
  },
  {
    "molecule": "Cc1c(-c2[nH]c3sc(C4CCN(CC(N)=O)CC4)c(C)c3c2C(C)C)cn2ncnc2c1C [Example 67]",
    "scale unit": "nM",
    "EC50": 0.35
  }
]

(A) Cc1c(-c2[nH]c3sc([C@H]4C[C@@H]5CC[C@H]4CN5CCS(C)(=O)=O)c(C)c3c2C(C)C)cn2ncnc2c1C (single isomer, unassigned) [Example 214]
(B) Cc1c(-c2[nH]c3sc(C4CC5(CNC5)C4)c(C)c3c2C(C)C)cn2ncnc2c1C [Example 60]
Ask: Returns: the label, A or B , whose recorded EC50 is the lower number. Returns: label corresponding to the selected item.
Reply: B

(A) Cc1c(-c2[nH]c3sc(C4CCC(N5CC6(CCNC6=O)C5)CC4)c(C)c3c2C(C)C)cn2ncnc2c1C (single isomer, unassigned) [Example 305]
(B) Cc1c(C2CCN(C(=O)C3CNC3)CC2)sc2[nH]c(-c3cc(C)c4ncnn4c3)c(C(C)C)c12 [Example 16]
(C) Cc1c(-c2[nH]c3sc([C@@H]4C[C@@H]5CC[C@H]4CN5CC(=O)N(C)C)c(C)c3c2C(C)C)cn2ncnc2c1C (single isomer, unassigned) [Example 213]
(D) COCc1c(C2CCN(CC(N)=O)CC2)sc2[nH]c(-c3cc(C)c4ncnn4c3)c(C(C)C)c12 [Example 160]
Ask: Arrange items by their EC50 values in increasing order. Order the labels as requested and list them.
Reply: D, A, B, C
(D: 0.26 nM, A: 0.78 nM, B: 1.63 nM, C: 4.05 nM)

(1) Cc1c(-c2[nH]c3sc(C4CCN(C(=O)[C@H]5CCCN5)CC4)c(C)c3c2C(C)C)cn2ncnc2c1C [Example 98]
(2) Cc1c(C2CCN(C(=O)[C@H]3C[C@H](F)CN3)CC2)sc2[nH]c(-c3cc(C)c4ncnn4c3)c(C(C)C)c12 [Example 43]
Ask: Between 1 and 2 , which one shows the larger EC50 value? Returns: label corresponding to the selected item.
Reply: 2

(P) Cc1c(-c2[nH]c3sc(C4CCN(C(=O)C56CCC(CN5)OC6)CC4)c(C)c3c2C(C)C)cn2ncnc2c1C (stereo not shown) [Example 108]
(Q) Cc1c(C23CCN(CC(N)=O)CC2C3(F)F)sc2[nH]c(-c3cc(C)c4ncnn4c3)c(C(C)C)c12 (stereo not shown) [Example 205]
(R) Cc1c(-c2[nH]c3sc(C4CCC(N5CC6(CCNC6=O)C5)CC4)c(C)c3c2C(C)C)cn2ncnc2c1C (stereo not shown) [Example 299]
(S) Cc1c(-c2[nH]c3sc(C4CC5(CNCCO5)C4)c(C)c3c2C(C)C)cn2ncnc2c1C (single isomer, unassigned) [Example 90]
Ask: Arrange items by their EC50 values in increasing order. Order the labels as requested and list them.
Reply: R, P, Q, S

(a) Cc1c(C2CCN(C(=O)C3(C)COCCN3)CC2)sc2[nH]c(-c3cc(C)c4ncnn4c3)c(C(C)C)c12 (stereo not shown) [Example 51]
(b) Cc1c(C2CC3COCC(C2)N3)sc2[nH]c(-c3cc(C)c4ncnn4c3)c(C(C)C)c12 (stereo not shown) [Example 59]
Ask: Between a and b , which one shows the larger EC50 value? Returns: label corresponding to the selected item.
Reply: b

(a) Cc1cc(-c2[nH]c3sc(C(=O)N(C)C4CCNCC4)cc3c2C(C)C)cn2ncnc12 [Example 1]
(b) Cc1cc(-c2[nH]c3sc(C4CCNCC4)c(CO)c3c2C(C)C)cn2ncnc12 [Example 258]
(c) COCc1c(C2CCNCC2)sc2[nH]c(-c3cc(C)c4ncnn4c3)c(C(C)C)c12 [Example 259]
Ask: // ranking: key=EC50, reverse=True Order the labels as requested and list them.
Reply: b, a, c
(b: 0.89 nM, a: 0.56 nM, c: 0.15 nM)

(A) Cc1c(-c2ccc3[nH]c([C@H]4N[C@@H]5CC[C@H]4C5)nc3c2)sc2[nH]c(-c3cc(C)c4ncnn4c3)c(C(C)C)c12 [Example 22]
(B) Cc1c(-c2[nH]c3sc(-c4cccc(C5CCNCC5)c4)c(C)c3c2C(C)C)cn2ncnc2c1C [Example 222]
Ask: Between A and B , which one shows the larger EC50 value? Returns: label corresponding to the selected item.
Reply: B
